The values you see were collected from patent US4008219A.

Field: Chemical Stimulus Method (Writhing Method). Provide a value for each of the molecules that follow.
system: mice of the ddN-series; experiment: Analgesic test, Chemical Stimulus Method (Writhing Method); format: in vivo, mouse; design: scale not given here; settings: interabdominal injection, comparative value, scale not given
Numbers only.

Measured Chemical Stimulus Method (Writhing Method) of CC(C)=CCN1CCC2CC(Cc3ccccc32)C1 (stereo not drawn) [R=H, R1=H, R2=H, CH2R3=drawing 40, R4=H] : 1.0

I need Chemical Stimulus Method (Writhing Method) for every entry listed below, if you could help.
1. CC(C)=CCN1CCC2(C)CC(C1)C(O)c1ccccc12 (stereo not drawn) [R=H, R1=CH3, R2=H, CH2R3=drawing 38, R4=OH]
2. c1ccc(CCN2CCC3CC(Cc4ccccc43)C2)cc1 (stereo not drawn) [R=H, R1=H, R2=H, CH2R3=drawing 41, R4=H]

1. 1.5
2. 0.8
